Please provide measured Plant response rating, Rice for the entries that follow.
# Tested on: rice (Oryza sativa)
# test_description: Test B flooded paddy test
# Assay type: in vivo
# experimental_context: Flood (flooded paddy test), 125 g ai/ha; scale 0 to 100, 0 is no effect, 100 is complete control; 13 to 15 days

molecule="CCCn1c(-c2ccc(F)cc2)ncc(C(=O)C2=C(O)CCCC2=O)c1=O [Compound 102]" reported_value=20

Field: Plant response rating, Rice. Fill in for each record below.
1. Cc1ccc(F)cc1-n1c(-c2cccc(Cl)c2)ncc(C(=O)C2=C(O)CCCC2=O)c1=O [Compound 157]
2. CCc1ccc(-n2c(-c3cccc(Cl)c3)ncc(C(=O)C3=C(O)CCCC3=O)c2=O)cc1 [Compound 174]

[0, 0]

Give Plant response rating, Rice for each listed item.
1. CCCCn1c(-c2cccc(Cl)c2)ncc(C(=O)C2=C(O)CCCC2=O)c1=O [Compound 146]
2. CCCc1ncc(C(=O)C2=C(O)CCCC2=O)c(=O)n1Cc1cccc(OC)c1 [Compound 104]
3. Cc1ccc(Cl)cc1-n1c(-c2cc(F)cc(F)c2)ncc(C(=O)C2=C(O)CCCC2=O)c1=O [Compound 179]
4. Cc1cc(-n2c(-c3cccc(Cl)c3)ncc(C(=O)C3=C(O)CCCC3=O)c2=O)ccc1F [Compound 133]

0
0
25
0

Item under review: O=C1CCCC(O)=C1C(=O)c1cnc(-c2cccc(F)c2)n(-c2ccccc2)c1=O [Compound 199] . Reported Plant response rating, Rice?
0

* * *

# Tested on: johnsongrass (Sorghum halepense)
# test_description: Test B pre-/postemergence plant response
# Type: in vivo
# experimental_context: Preemergence, 125 g ai/ha; scale 0 to 100, 0 no effect, 100 complete control
# Source text: […] Treated plants and controls were maintained in a greenhouse for 13 to 15 days, after which time all treated plants were visually evaluated and compared to controls. […]
assay_readout: Plant response rating, Johnsongrass
One number for each entry.

See these solved cases before continuing.
compound=COc1ccc(-n2c(-c3ccccc3)ncc(C(=O)C3=C(O)CCCC3=O)c2=O)cc1OC reported_value=20
compound="CCCc1ncc(C(=O)C2=C(O)CCCC2=O)c(=O)n1CC1CCCO1 (centres unmarked)" reported_value=0
compound=CCCc1ncc(C(=O)C2=C(O)CCCC2=O)c(=O)n1-c1ccccc1C reported_value=98
compound=CCc1ccccc1-n1c(-c2ccccc2)ncc(C(=O)C2=C(O)CCCC2=O)c1=O reported_value=75
compound="O=C1CCCC(O)=C1C(=O)c1cnc(-c2ccccc2)n(CC2CCCO2)c1=O (centres unmarked)" reported_value=80
compound=COCCn1c(-c2cc(F)cc(F)c2)ncc(C(=O)C2=C(O)CCCC2=O)c1=O reported_value=95
compound=CCc1ccc(-n2c(-c3ccccc3)ncc(C(=O)C3=C(O)CCCC3=O)c2=O)cc1 reported_value=65

Tell me the measured Plant response rating, Johnsongrass of `COCCCn1c(-c2cc(F)cc(F)c2)ncc(C(=O)C2=C(O)CCCC2=O)c1=O` , please.
80

* * *

# System: blackgrass (Alopecurus myosuroides)
# test_description: Test B pre-/postemergence plant response
# Assay type: in vivo
# experimental_context: Postemergence, 125 g ai/ha; scale 0 to 100 (0 no effect, 100 complete control)
assay_readout: Plant response rating, Blackgrass
One number for each entry.

Examples with answers:
compound=COCCn1c(-c2cc(F)cc(F)c2)ncc(C(=O)C2=C(O)CCCC2=O)c1=O assay_system="blackgrass (Alopecurus myosuroides)" reported_value=50
compound=CCCn1c(-c2cccc(C(F)(F)F)c2)ncc(C(=O)C2=C(O)CCCC2=O)c1=O assay_system="blackgrass (Alopecurus myosuroides)" reported_value=60
compound=COCCCn1c(-c2cc(F)cc(F)c2)ncc(C(=O)C2=C(O)CCCC2=O)c1=O assay_system="blackgrass (Alopecurus myosuroides)" reported_value=60

Okay, now this compound:
For the compound COCCn1c(-c2ccsc2)ncc(C(=O)C2=C(O)C3CCC(C3)C2=O)c1=O (stereo not shown) , what Plant response rating, Blackgrass is on record?
50
